Hey, just so you know, these numbers are from patent US10196381B2.

# tested system: PARP-1 enzyme (Homo sapiens (Human))
# Sequence (P09874 whole entry): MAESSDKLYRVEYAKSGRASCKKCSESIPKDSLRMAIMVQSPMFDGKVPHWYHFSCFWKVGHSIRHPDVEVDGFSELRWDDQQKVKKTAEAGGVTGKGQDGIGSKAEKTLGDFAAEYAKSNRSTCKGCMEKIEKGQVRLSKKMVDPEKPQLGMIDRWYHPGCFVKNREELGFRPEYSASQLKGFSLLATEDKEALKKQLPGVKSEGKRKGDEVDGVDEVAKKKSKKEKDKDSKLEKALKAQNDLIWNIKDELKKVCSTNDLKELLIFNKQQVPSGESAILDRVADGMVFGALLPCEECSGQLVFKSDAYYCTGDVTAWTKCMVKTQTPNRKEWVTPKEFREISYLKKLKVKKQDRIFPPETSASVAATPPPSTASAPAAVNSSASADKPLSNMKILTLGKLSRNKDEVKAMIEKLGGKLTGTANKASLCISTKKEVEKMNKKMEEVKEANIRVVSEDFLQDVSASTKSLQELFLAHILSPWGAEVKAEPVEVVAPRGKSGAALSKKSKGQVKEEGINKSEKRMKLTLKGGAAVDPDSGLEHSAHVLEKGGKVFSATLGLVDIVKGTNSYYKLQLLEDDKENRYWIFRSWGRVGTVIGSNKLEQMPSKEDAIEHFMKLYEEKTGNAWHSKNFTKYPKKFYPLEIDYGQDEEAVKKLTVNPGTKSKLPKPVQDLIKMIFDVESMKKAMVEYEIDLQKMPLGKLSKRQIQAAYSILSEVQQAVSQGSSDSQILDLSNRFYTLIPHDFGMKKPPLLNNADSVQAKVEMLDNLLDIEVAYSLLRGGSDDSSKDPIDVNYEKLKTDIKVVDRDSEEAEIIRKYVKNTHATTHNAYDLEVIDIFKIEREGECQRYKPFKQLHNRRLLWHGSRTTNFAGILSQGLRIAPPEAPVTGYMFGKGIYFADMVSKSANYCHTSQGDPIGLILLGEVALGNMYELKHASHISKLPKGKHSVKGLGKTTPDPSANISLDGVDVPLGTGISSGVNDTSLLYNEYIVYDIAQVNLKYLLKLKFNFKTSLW
# experimental protocol: PARP enzyme activity assay (HT Universal Chemiluminescent PARP Assay Kit, histone-coated wells)
# Format: biochemical
# condition details: read-out: Inhibition (%) at 100 nM
Entries and their inhibition at 0.1 µM
Output spec: scalar in %, unitless text.

compound="NC(=O)c1cc(F)cc2[nH]c(N3CCN(c4cnc(C(=O)N5CCOCC5)cn4)CC3)nc12 [Compound (30)]" tested_system="PARP-1 enzyme (Homo sapiens (Human))" observed=92
compound="CNC(=O)c1ncc(N2CCN(c3nc4c(C(N)=O)cc(F)cc4[nH]3)CC2)cn1 [Compound (39)]" tested_system="PARP-1 enzyme (Homo sapiens (Human))" observed=92
compound="NC(=O)c1cc(F)cc2[nH]c(N3CCN(c4cnc(C(=O)N5CCCC5)cn4)CC3)nc12 [Compound (29)]" tested_system="PARP-1 enzyme (Homo sapiens (Human))" observed=88
compound="NC(=O)c1cccc2[nH]c(N3CCN(c4ncc(F)cn4)CC3)nc12 [Compound (2)]" tested_system="PARP-1 enzyme (Homo sapiens (Human))" observed=69
compound="CN(C)C(=O)c1ccc(N2CCN(c3nc4c(C(N)=O)cccc4[nH]3)CC2)nc1 [Compound (15)]" tested_system="PARP-1 enzyme (Homo sapiens (Human))" observed=70

## Task If you can, please state the reported inhibition at 0.1 µM value of NC(=O)c1cc(F)cc2[nH]c(N3CCN(c4cnc(C(F)(F)F)cn4)CC3)nc12 [Compound (35)] .
## Result 91

## Task // next record NC(=O)c1cccc2[nH]c(N3CCN(c4ccnc(C(F)(F)F)c4)CC3)nc12 [Compound (13)]
## Result 69

## Task // next record NC(=O)c1cc(F)cc2[nH]c(N3CCN(c4ccncn4)CC3)nc12 [Compound (16)]
## Result 91
